- Tested on: NCI-H841 complex tumor spheroid viability
- PROCEDURE DETAILS: Anticancer human tumor NCI-H841 cell line growth inhibition; active means viability on the fitted dose curve at most 10% of control; inactive means the rest
- SETUP CONDITIONS: second compound 0.003 µM; first compound 0.03 µM
Write down the outcome that applies. Available outcomes: YES = active, NO = inactive

In this assay, the call recorded for CNCc1ccc(-c2cc(-c3nc(-c4ccc(S(=O)(=O)C(C)C)cc4)cnc3N)on2)cc1 + CC[C@@]1(O)C(=O)OCc2c1cc1n(c2=O)Cc2cc3c(CN(C)C)c(O)ccc3nc2-1 was what?
NO

Per the assay record, what outcome was assigned to Cn1ncnc1[C@H]1c2n[nH]c(=O)c3cc(F)cc(c23)N[C@@H]1c1ccc(F)cc1 + CC[C@@]1(O)C(=O)OCc2c1cc1n(c2=O)Cc2cc3c(CN(C)C)c(O)ccc3nc2-1 ?
NO

What did the test return for CNCc1ccc(-c2cc(-c3nc(-c4ccc(S(=O)(=O)C(C)C)cc4)cnc3N)on2)cc1 + COc1cc2c(cc1O)CCNC21CSC2c3c(OC(C)=O)c(C)c4c(c3C(COC1=O)N1C(O)C3Cc5cc(C)c(OC)c(O)c5C(C21)N3C)OCO4 ?
YES

---

- System: NCI-H841 complex tumor spheroid viability
- PROCEDURE DETAILS: Anticancer human tumor NCI-H841 cell line growth inhibition; active means viability on the fitted dose curve at most 10% of control; inactive means the rest;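 further: spheroids exposed to compounds for 7 days before readout; 100% = DMSO vehicle control wells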
- SETUP CONDITIONS: second compound 94.9 pM; first compound 0.1 µM
I would appreciate it if you answered using one of these outcomes: YES (active), NO (inactive)

Use the examples below as a reference point.
{"COMPOUND": "COc1ccc([C@@H](O)c2cc(-c3ncnc4cc(N5CCOCC5)ccc34)c(F)cc2Cl)nn1 + COc1cc2c(cc1O)CCNC21CSC2c3c(OC(C)=O)c(C)c4c(c3C(COC1=O)N1C(O)C3Cc5cc(C)c(OC)c(O)c5C(C21)N3C)OCO4", "LABEL": "NO"}
{"COMPOUND": "Cc1cc(C)c(CNC(=O)c2cc(-c3ccc(CN4CCOCC4)cc3)cc3c2cnn3C2CCCC2)c(=O)[nH]1 + COc1cc2c(cc1O)CCNC21CSC2c3c(OC(C)=O)c(C)c4c(c3C(COC1=O)N1C(O)C3Cc5cc(C)c(OC)c(O)c5C(C21)N3C)OCO4", "LABEL": "NO"}
{"COMPOUND": "CC(C)n1c(=O)n(C)c2cnc3cc(F)c(-c4ccc(OCCCN5CCCCC5)nc4)cc3c21 + COc1cc2c(cc1O)CCNC21CSC2c3c(OC(C)=O)c(C)c4c(c3C(COC1=O)N1C(O)C3Cc5cc(C)c(OC)c(O)c5C(C21)N3C)OCO4", "LABEL": "NO"}
{"COMPOUND": "[2H]c1nc(C)nc([2H])c1-c1cc(NC[C@@H](C)c2cccc3c(C(=O)NC)ccnc23)ncn1 + COc1cc2c(cc1O)CCNC21CSC2c3c(OC(C)=O)c(C)c4c(c3C(COC1=O)N1C(O)C3Cc5cc(C)c(OC)c(O)c5C(C21)N3C)OCO4", "LABEL": "NO"}
{"COMPOUND": "COc1cc(C)[nH]c(=O)c1CN1CCc2c(Cl)cc(C(OC)C3COC3)c(Cl)c2C1=O (stereo unspecified) + COc1cc2c(cc1O)CCNC21CSC2c3c(OC(C)=O)c(C)c4c(c3C(COC1=O)N1C(O)C3Cc5cc(C)c(OC)c(O)c5C(C21)N3C)OCO4", "LABEL": "NO"}

Consider the record given below.
Outcome? CC1COCCN1c1cc(-c2ccnn2C)c2ccnc(-c3ccn[nH]3)c2n1 (stereo unspecified) + COc1cc2c(cc1O)CCNC21CSC2c3c(OC(C)=O)c(C)c4c(c3C(COC1=O)N1C(O)C3Cc5cc(C)c(OC)c(O)c5C(C21)N3C)OCO4
YES

---

- Tested on: NCI-H841 complex tumor spheroid viability
- PROCEDURE DETAILS: Anticancer human tumor NCI-H841 cell line growth inhibition;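 further: spheroids exposed to compounds for 7 days before readout; 100% = DMSO vehicle control wells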
- SETUP CONDITIONS: second compound 30 pM; first compound 3.16 µM; hits give low values
READOUT TYPE: viability, T/C (%)
Give the value, in units of %, as a plain number.

These recorded examples may help you get a feel for the data.
{"COMPOUND": "COc1cc(C)[nH]c(=O)c1CN1CCc2c(Cl)cc(C(OC)C3COC3)c(Cl)c2C1=O (stereo unspecified) + COc1cc2c(cc1O)CCNC21CSC2c3c(OC(C)=O)c(C)c4c(c3C(COC1=O)N1C(O)C3Cc5cc(C)c(OC)c(O)c5C(C21)N3C)OCO4", "viability, T/C, %": 58.8}
{"COMPOUND": "CC1COCCN1c1cc(-c2ccnn2C)c2ccnc(-c3ccn[nH]3)c2n1 (stereo unspecified) + COc1cc2c(cc1O)CCNC21CSC2c3c(OC(C)=O)c(C)c4c(c3C(COC1=O)N1C(O)C3Cc5cc(C)c(OC)c(O)c5C(C21)N3C)OCO4", "viability, T/C, %": 1.08}
{"COMPOUND": "[2H]c1nc(C)nc([2H])c1-c1cc(NC[C@@H](C)c2cccc3c(C(=O)NC)ccnc23)ncn1 + COc1cc2c(cc1O)CCNC21CSC2c3c(OC(C)=O)c(C)c4c(c3C(COC1=O)N1C(O)C3Cc5cc(C)c(OC)c(O)c5C(C21)N3C)OCO4", "viability, T/C, %": 97.2}
{"COMPOUND": "COc1ccc([C@@H](O)c2cc(-c3ncnc4cc(N5CCOCC5)ccc34)c(F)cc2Cl)nn1 + COc1cc2c(cc1O)CCNC21CSC2c3c(OC(C)=O)c(C)c4c(c3C(COC1=O)N1C(O)C3Cc5cc(C)c(OC)c(O)c5C(C21)N3C)OCO4", "viability, T/C, %": 47.5}
{"COMPOUND": "Cc1cc(C)c(CNC(=O)c2cc(-c3ccc(CN4CCOCC4)cc3)cc3c2cnn3C2CCCC2)c(=O)[nH]1 + COc1cc2c(cc1O)CCNC21CSC2c3c(OC(C)=O)c(C)c4c(c3C(COC1=O)N1C(O)C3Cc5cc(C)c(OC)c(O)c5C(C21)N3C)OCO4", "viability, T/C, %": 87}

viability, T/C for NCI-H841 complex tumor spheroid viability with input CC(C)n1c(=O)n(C)c2cnc3cc(F)c(-c4ccc(OCCCN5CCCCC5)nc4)cc3c21 + COc1cc2c(cc1O)CCNC21CSC2c3c(OC(C)=O)c(C)c4c(c3C(COC1=O)N1C(O)C3Cc5cc(C)c(OC)c(O)c5C(C21)N3C)OCO4 equals 79.1

---

Overview of reported viability, T/C across a group of compounds:
- Test system: NCI-H841 complex tumor spheroid viability
- PROCEDURE DETAILS: Anticancer human tumor NCI-H841 cell line growth inhibition;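 further: spheroids exposed to compounds for 7 days before readout; 100% = DMSO vehicle control wells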
- SETUP CONDITIONS: second compound 10 µM; first compound 0.0316 µM; hits give low values
Expressed in %, but write only the number.

{"COMPOUND": "COc1ccc([C@@H](O)c2cc(-c3ncnc4cc(N5CCOCC5)ccc34)c(F)cc2Cl)nn1 + Cn1nnc2c(C(N)=O)ncn2c1=O", "STUDY SYSTEM": "NCI-H841 complex tumor spheroid viability", "viability, T/C [%]": 103}
{"COMPOUND": "Cc1cc(C)c(CNC(=O)c2cc(-c3ccc(CN4CCOCC4)cc3)cc3c2cnn3C2CCCC2)c(=O)[nH]1 + Cn1nnc2c(C(N)=O)ncn2c1=O", "STUDY SYSTEM": "NCI-H841 complex tumor spheroid viability", "viability, T/C [%]": 103}
{"COMPOUND": "[2H]c1nc(C)nc([2H])c1-c1cc(NC[C@@H](C)c2cccc3c(C(=O)NC)ccnc23)ncn1 + Cn1nnc2c(C(N)=O)ncn2c1=O", "STUDY SYSTEM": "NCI-H841 complex tumor spheroid viability", "viability, T/C [%]": 99.6}
{"COMPOUND": "CC1COCCN1c1cc(-c2ccnn2C)c2ccnc(-c3ccn[nH]3)c2n1 (stereo unspecified) + Cn1nnc2c(C(N)=O)ncn2c1=O", "STUDY SYSTEM": "NCI-H841 complex tumor spheroid viability", "viability, T/C [%]": 55.4}
{"COMPOUND": "COc1cc(C)[nH]c(=O)c1CN1CCc2c(Cl)cc(C(OC)C3COC3)c(Cl)c2C1=O (stereo unspecified) + Cn1nnc2c(C(N)=O)ncn2c1=O", "STUDY SYSTEM": "NCI-H841 complex tumor spheroid viability", "viability, T/C [%]": 86}

viability, T/C in this record for CC(C)n1c(=O)n(C)c2cnc3cc(F)c(-c4ccc(OCCCN5CCCCC5)nc4)cc3c21 + Cn1nnc2c(C(N)=O)ncn2c1=O : 93.1

---

- System: NCI-H841 complex tumor spheroid viability
- PROCEDURE DETAILS: Anticancer human tumor NCI-H841 cell line growth inhibition;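 further: spheroids exposed to compounds for 7 days before readout; 100% = DMSO vehicle control wells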
- SETUP CONDITIONS: second compound 0.03 µM; first compound 3 µM; hits give low values
Overview of recorded viability, T/C for various compounds
Unit % implied. Number only.

Consider the reported viability, T/C for these compounds:
{"COMPOUND": "O=C(c1cc(Cc2n[nH]c(=O)c3ccccc23)ccc1F)N1CCN(C(=O)C2CC2)CC1 + CC[C@@]1(O)C(=O)OCc2c1cc1n(c2=O)Cc2cc3c(CN(C)C)c(O)ccc3nc2-1", "STUDY SYSTEM": "NCI-H841 complex tumor spheroid viability", "MEASUREMENT UNIT": "%", "viability, T/C": 1.3}
{"COMPOUND": "CNCc1ccc(-c2cc(-c3nc(-c4ccc(S(=O)(=O)C(C)C)cc4)cnc3N)on2)cc1 + CC[C@@]1(O)C(=O)OCc2c1cc1n(c2=O)Cc2cc3c(CN(C)C)c(O)ccc3nc2-1", "STUDY SYSTEM": "NCI-H841 complex tumor spheroid viability", "MEASUREMENT UNIT": "%", "viability, T/C": 0.17}

The compound identified as Cc1sc2c(c1C)C(c1ccc(Cl)cc1)=NC(CC(=O)Nc1ccc(O)cc1)c1nnc(C)n1-2 (centres undefined) + CC[C@@]1(O)C(=O)OCc2c1cc1n(c2=O)Cc2cc3c(CN(C)C)c(O)ccc3nc2-1 registered its viability, T/C at 0.5

Entry Cn1ncnc1[C@H]1c2n[nH]c(=O)c3cc(F)cc(c23)N[C@@H]1c1ccc(F)cc1 + CC[C@@]1(O)C(=O)OCc2c1cc1n(c2=O)Cc2cc3c(CN(C)C)c(O)ccc3nc2-1 ; viability, T/C = 1.81

Where do the numbers come from? From PubChem BioAssay AID1845213.
